Test system: Staphylococcus sp.
protocol: In vitro antibacterial evaluation: minimum inhibitory concentration (MIC), broth dilution method
Type: cell-based
condition.parameters: Coagulase Negative Staphylococcus (GC 4549); 18 hours at 35° C.
Excerpt: […]
// MIC Coagulase Negative Staphylococcus (GC 4549) lookup, one value per entry
experimental.endpoint: MIC Coagulase Negative Staphylococcus (GC 4549) (µg/mL)

compound="COc1ccc(COC2C(CO)OC(OC3C(CO)OC(Oc4ccc(CC5NC(=O)C(C(C)c6ccccc6)NC(=O)CNC(=O)C(CO)NC(=O)C(C(O)C6CNC(=N)N6C6OC(CO)C(O)C(O)C6O)NC(=O)C(C(O)C6CNC(=N)N6)NC5=O)cc4)C(O)C3O)C(O)C2O)cc1OCc1ccccc1 (stereo not shown) [Example 239a]" reported_relation== quantitative_readout=2
compound="COc1ccc(COCC2OC(OC3C(CO)OC(Oc4ccc(CC5NC(=O)C(C(C)c6ccccc6)NC(=O)CNC(=O)C(CO)NC(=O)C(C(O)C6CNC(=N)N6C6OC(CO)C(O)C(O)C6O)NC(=O)C(C(O)C6CNC(=N)N6)NC5=O)cc4)C(O)C3O)C(O)C(O)C2O)cc1 (stereo not shown) [Example 232]" reported_relation== quantitative_readout=1
compound="CC(c1ccc(F)cc1)C1NC(=O)CNC(=O)C(CO)NC(=O)C(C(O)C2CNC(=N)N2C2OC(CO)C(O)C(O)C2O)NC(=O)C(C(O)C2CNC(=N)N2)NC(=O)C(Cc2ccc(OC3OC(CO)C(OC4OC(CO)C(O)C(O)C4O)C(O)C3O)cc2)NC1=O (stereo not shown) [Example 261a]" reported_relation=> quantitative_readout=64
compound="CC(C)CC(=O)OC1C(O)C(CO)OC(OC2C(CO)OC(Oc3ccc(CC4NC(=O)C(C(C)c5cccs5)NC(=O)CNC(=O)C(CO)NC(=O)C(C(O)C5CNC(=N)N5C5OC(CO)C(O)C(O)C5O)NC(=O)C(C(O)C5CNC(=N)N5)NC4=O)cc3)C(O)C2O)C1O (stereo not shown) [Example 265b]" reported_relation== quantitative_readout=4
